Molecular target: T1, sIL-6R (soluble IL-6 receptor; SBH Sciences) (human, UniProt P08887 20-365)
T1 construct: also called human IL-6R
T1 sequence: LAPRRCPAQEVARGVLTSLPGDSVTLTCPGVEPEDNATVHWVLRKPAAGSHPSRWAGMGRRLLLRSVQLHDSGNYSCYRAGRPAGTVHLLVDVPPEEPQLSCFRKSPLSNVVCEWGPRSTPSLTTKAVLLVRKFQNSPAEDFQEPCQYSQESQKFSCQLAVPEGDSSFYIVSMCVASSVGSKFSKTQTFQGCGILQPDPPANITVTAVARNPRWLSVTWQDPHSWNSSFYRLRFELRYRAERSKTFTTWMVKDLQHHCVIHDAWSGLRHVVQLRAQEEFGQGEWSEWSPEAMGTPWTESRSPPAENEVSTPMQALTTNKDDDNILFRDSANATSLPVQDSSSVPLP
Test: SPR (BIAcore 3000), antibody on chip, sIL-6R analyte, 25 C
MEASUREMENT_LABEL: Relative Affinity

Q. What value of Relative Affinity has been reported for the following binder? 7# (antibody, human IgG1, kappa, V domains shown, also called Sample # 7) VH: QVQLQESGPGLVRPSQTLSLTCTVSGYSITSDHAWSWVRQPPGRGLEWIGYISYSGITTYNPSLKSRVTMLRDTSKNQFSLRLSSVTAADTAVYYCARSLARTTAIDYWGQGSLVTVSS VL: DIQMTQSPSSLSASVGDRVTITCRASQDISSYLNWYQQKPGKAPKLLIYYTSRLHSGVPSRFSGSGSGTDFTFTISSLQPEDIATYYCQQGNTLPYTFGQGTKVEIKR
A. 1.8 fold vs 25 (Tocilizumab)

Cited source for all entries: patent US20190315854A1
